The measurements presented in this section are drawn from PubChem BioAssay (NCI).

Test system: M14 melanoma
Test: NCI-60 one-dose screen, 48 h (100 = growth as untreated, 0 = no growth, -100 = all killed)
Conditions: 10 µM unless noted
This is part of a sample that, as a whole, favours compounds with a hit. Of some 83,000 tested, about 20% had one in any assay.
readout_type: growth (%)
State just the number; it will be interpreted in %.

Request: Looking for the measured growth of CN(C)c1ccc(-c2ccc(-c3ccc(C(=N)N)cn3)o2)cc1 , can you help?
Response: -74.4

Request: What about C=CCn1c(C)nc2ccc(Nc3nc(Nc4ccc(F)cc4)nc4ccccc34)cc21 ?
Response: 45.2

Request: What about N#Cc1c(NC(=O)c2ccc([N+](=O)[O-])o2)[n+]([O-])c2cc(F)c(F)cc2[n+]1[O-] ?
Response: 112

Request: What about O=C1CCCCN1CCCCC#Cc1ccccc1C#Cc1ccc([N+](=O)[O-])cc1 ?
Response: 59.5

Request: What about O=c1cc(C2NCCc3c2[nH]c2ccccc32)c2c(ccc3ccccc32)o1 (stereo not given) ?
Response: 65.2
